Target: RORγ (UniProt P51449)
Experiment: RORγ Gal4 Reporter Gene Assay in 293T cells (firefly and renilla luciferase)
Type: cell-based, human
Conditions: second value of the cell; Gal4 reporter gene assay in 293T cells, firefly luciferase
measurement.label: pIC50 (FF)

compound: Cc1c(C(=O)NCC(C)(C)O)cc(-c2ccc(S(=O)(=O)NC(C)(C)C)c(C(C)(C)C)c2)n1CC1CCCCC1
pIC50 (FF): 7.0
//
compound: Cc1c(C(=O)NCC2(O)CCSCC2)cc(-c2cc(C(C)(C)C)c3c(c2)C2(CCO3)CC2)n1CC1CCCCC1
pIC50 (FF): 7.1
//
compound: Cc1c(C(=O)NCC2COC2)cc(-c2cc(C(C)(C)C)cc(C(C)(C)C)c2)n1CC1CCCCC1
pIC50 (FF): 7.4
//
compound: Cc1c(C(=O)NCC(C)(C)O)cc(-c2cc(C(C)(C)C)c3c(c2)C(C)(C)CO3)n1CC1CCCCC1
pIC50 (FF): 7.1
//
compound: CNC(=O)C(C)(C)CNC(=O)c1cc(-c2cc(C(C)(C)C)c3c(c2)C2(CCO3)CC2)n(CC2CCCCC2)c1C
pIC50 (FF): 7.3
//
compound: CNC(=O)C1(CNC(=O)c2cc(-c3ccc(S(=O)(=O)NC(C)(C)C)c(C(F)(F)F)c3)n(CC3CCCCC3)c2C)CCOCC1
pIC50 (FF): 6.9
//
compound: Cc1c(C(=O)NC2CCOCC2)cc(-c2cc(F)c(S(=O)(=O)NC(C)(C)C)c(C(F)(F)F)c2)n1CC1CCCCC1
pIC50 (FF): 7.2
//
compound: Cc1c(C(=O)NC2CCOCC2)cc(-c2cnc(S(=O)(=O)NC(C)(C)C)c(C(F)(F)F)c2)n1CC1CCCCC1
pIC50 (FF): 6.5
//
compound: Cc1c(C(=O)NC2CCOCC2)cc(-c2cc3c(c(C(C)(C)C)c2)OCCC3O)n1CC1CCCCC1 (centres unmarked)
pIC50 (FF): 6.1
//
compound: Cc1c(C(=O)NCC(C)(C)C(=O)N2CCOCC2)cc(-c2cc(C(C)(C)C)c3c(c2)C2(CCO3)CC2)n1CC1CCCCC1
pIC50 (FF): 6.5
//
compound: Cc1c(C(=O)NCC2(O)CCS(=O)(=O)CC2)cc(-c2cc(C(C)(C)O)cc(C3(C)CC3)c2)n1CC1CCCCC1
pIC50 (FF): 6.5
//
compound: Cc1c(C(=O)NCC(C)(C)NS(C)(=O)=O)cc(-c2ccc(S(=O)(=O)NC(C)(C)C)c(C(C)(C)C)c2)n1CC1CCCCC1
pIC50 (FF): 6.8
//
compound: Cc1c(C(=O)NCCc2nn[nH]n2)cc(-c2ccc(S(=O)(=O)NC(C)(C)C)c(C(C)(C)C)c2)n1CC1CCCCC1
pIC50 (FF): 5.8
//
compound: Cc1c(C(=O)N[C@H]2C[C@H](C(=O)O)C2)cc(-c2cc(Cl)cc(C(=O)NC(C)(C)C)c2)n1CC1CCCCC1
pIC50 (FF): 5.9

###

Target: RORγ (UniProt P51449)
Experiment: RORγ Gal4 Reporter Gene Assay in 293T cells (firefly and renilla luciferase)
Format: cell-based, human
Conditions: second value of the cell; Gal4 reporter gene assay in 293T cells, firefly luciferase
measurement.label: pIC50 (FF)

compound: Cc1c(C(=O)NCC2(C(=O)NCCCO)CCOCC2)cc(-c2cc(C(C)(C)C)c3c(c2)C2(CCO3)CC2)n1CC1CCCCC1 [17/34]
pIC50 (FF): 7.0
//
compound: Cc1c(C(=O)N2CC(N3CCOCC3)C2)cc(-c2cc(C(C)(C)C)cc(C3(C)CC3)c2)n1CC1CCCCC1 [17/344]
pIC50 (FF): 7.3
//
compound: Cc1c(C(=O)NCC(C)(C)O)cc(-c2ccc(S(=O)(=O)NC(C)(C)C)c3ccccc23)n1CC1CCC(F)CC1 (stereo not drawn) [17/374]
pIC50 (FF): 7.3
//
compound: COC(C)(C)c1cc(-c2c(Cl)c(C(=O)N[C@H]3C[C@H](C(=O)O)C3)c(C)n2CC2CCCCC2)cc(C2(C)CC2)c1 [29/2]
pIC50 (FF): 7.3
//
compound: Cc1c(C(=O)NC2CCOCC2)cc(-c2cc(Cl)c(S(N)(=O)=O)c(C(F)(F)F)c2)n1CC1CCCCC1 [19/1]
pIC50 (FF): 6.8
//
compound: Cc1c(C(=O)NCC(C)(C)c2noc(=O)[nH]2)cc(-c2cc(C(C)(C)C)cc(C3(C)CC3)c2)n1CC1CCCCC1 [17/162]
pIC50 (FF): 7.5
//
compound: Cc1c(C(=O)NCCCCO)cc(-c2cc(C(C)(C)C)cc(C(C)(C)C)c2)n1CC1CCCCC1 [1/66]
pIC50 (FF): 6.7
//
compound: Cc1c(C(=O)NC2COC2)cc(-c2cc(C(C)(C)C)c(F)c(C(C)(C)C)c2)n1CC1CCCCC1 [1/77]
pIC50 (FF): 6.9
//
compound: Cc1c(C(=O)NCC2(C)COC2)cc(-c2cc(C(C)(C)C)c3c(c2)C2(CCO3)CC2)n1CC1CCCCC1 [1/101]
pIC50 (FF): 7.2
//
compound: Cc1c(S(=O)(=O)NC(C)(C)C)ccc(-c2cc(C(=O)NCC(C)(C)O)c(C)n2CC2CCCCC2)c1Cl [17/291]
pIC50 (FF): 7.6
//
compound: Cc1c(C(=O)N2CC(O)C2)cc(-c2ccc(S(=O)(=O)NC(C)(C)C)c(C(C)(C)C)c2)n1CC1CCCCC1 [17/94]
pIC50 (FF): 6.8
//
compound: Cc1c(C(=O)N[C@H]2C[C@H](C(=O)O)C2)cc(-c2cc(C(C)(C)C)cc(C(C)(C)C)c2OC(F)F)n1CC1CCCCC1 [17/193]
pIC50 (FF): 6.9
//
compound: Cc1c(C(=O)NC2CCOCC2)cc(-c2ccc(C(=O)NCC(F)(F)F)c(C(C)(C)C)c2)n1CC1CCCCC1 [6/2]
pIC50 (FF): 6.5
//
compound: Cc1c(C(=O)NC2COC2)cc(-c2cc(C(C)(C)C)cc(C(C)(C)C)c2)n1C(C)C1CCCCC1 (stereo not drawn) [Example 1]
pIC50 (FF): 6.8

###

Target: RORγ (UniProt P51449)
Assay: RORγ Gal4 Reporter Gene Assay in 293T cells (firefly and renilla luciferase)
Type: cell-based, human
Conditions: third value of the cell; Gal4 reporter gene assay in 293T cells, renilla normalised luciferase
measurement.label: pIC50 (REN)

compound: Cc1c(C(=O)NC2CCOCC2)cc(-c2ccc(C(=O)N(C)C)c(C(C)(C)C)c2)n1CC1CCCCC1 [6/5]
pIC50 (REN): 6.4

compound: Cc1c(C(=O)NC2CCOCC2)cc(-c2ccc(S(=O)(=O)NC(C)C(C)(C)O)c(C(F)(F)F)c2)n1CC1CCCCC1 (stereo not shown) [17/146]
pIC50 (REN): 7.5

compound: Cc1c(C(=O)N[C@H]2C[C@H](C(=O)O)C2)cc(-c2cc(C(C)(C)C)cc(C(F)(F)F)c2)n1CC1CCCCC1 [17/304]
pIC50 (REN): 7.3

compound: Cc1c(C(=O)NC2COC2)cc(-c2cc(C3(C)CC3)c3c(c2)C2(CCO3)CC2)n1CC1CCCCC1 [1/42]
pIC50 (REN): 7.6

compound: Cc1c(C(=O)NCCS(N)(=O)=O)cc(-c2cc(C(C)(C)O)cc(C3(C)CC3)c2)n1CC1CCCCC1 [17/315]
pIC50 (REN): 6.5

compound: Cc1c(C(=O)N[C@H]2C[C@H](C(=O)O)C2)cc(-c2ccc(S(=O)(=O)NC(C)(C)C)c(C(C)(C)C)c2)n1CC1CCCCC1 [17/221]
pIC50 (REN): 7.1

compound: Cc1c(C(=O)NC2COC2)cc(-c2cc(C(C)(C)C)cc(C(C)(C)C)c2)n1CC1Cc2ccccc2C1 [1/118]
pIC50 (REN): 6.6

###

Target: RORγ (UniProt P51449)
Test: RORγ Gal4 Reporter Gene Assay in 293T cells (firefly and renilla luciferase)
Type: cell-based, human
Conditions: third value of the cell; Gal4 reporter gene assay in 293T cells, renilla normalised luciferase
measurement.label: pIC50 (REN)

molecule: Cc1c(C(=O)NCC(C)(C)O)cc(-c2ccc(S(=O)(=O)NC(C)(C)C)c3ccccc23)n1CC1CCCCC1
pIC50 (REN): 7.7
--
molecule: Cc1c(C(=O)NCC(C)(C)O)cc(-c2cc(C(C)(C)C)c3c(c2)C(C)(C)CO3)n1CC1CCCCC1
pIC50 (REN): 7.1
--
molecule: Cc1c(C(=O)NC2CCOCC2)cc(-c2cc(C(F)(F)F)cc(C3(C)CC3)c2)n1CC1CCCCC1
pIC50 (REN): 7.4
--
molecule: Cc1c(C(=O)N[C@H]2C[C@H](C(=O)O)C2)cc(-c2cc(C(=O)NC(C)(C)C)cc(C(C)(C)C)c2)n1CC1CCCCC1
pIC50 (REN): 7.4
--
molecule: Cc1c(C(=O)NCC2CC(C(=O)O)C2)cc(-c2cc(C(C)(C)O)cc(C3(C)CC3)c2)n1CC1CCCCC1 (stereo not drawn)
pIC50 (REN): 6.2
--
molecule: Cc1c(C(=O)N2CC(C(=O)O)C2)cc(-c2cc(C(C)(C)C)c3c(c2)C2(CCO3)CC2)n1CC1CCCCC1
pIC50 (REN): 6.7
--
molecule: Cc1c(C(=O)NC2CCOCC2)cc(-c2cc(C(C)(C)C)c3c(c2)C2(CCO3)CC2)n1CC1CCCCC1
pIC50 (REN): 7.4
--
molecule: Cc1c(C(=O)N[C@H]2CC[C@H](C(=O)O)CC2)cc(-c2ccc(S(=O)(=O)NC(C)(C)C)c(C(F)(F)F)c2)n1CC1CCCCC1
pIC50 (REN): 7.2
--
molecule: Cc1c(C(=O)NC2CCOCC2)cc(-c2ccc(S(=O)(=O)NC(C)(C)CC(F)(F)F)c(C(F)(F)F)c2)n1CC1CCCCC1
pIC50 (REN): 8.2
--
molecule: Cc1c(C(N)=O)cc(-c2cc(C3CC3)cc(C(C)(C)C)c2)n1CC1CCCCC1
pIC50 (REN): 6.2
--
molecule: Cc1c(C(=O)NCC2(C(=O)O)CCOCC2)cc(-c2cc(C(C)(C)C)cc(C3(C)CC3)c2)n1CC1CCCCC1
pIC50 (REN): 7.5
--
molecule: Cc1c(C(=O)NCC(C)(C)O)cc(-c2cc(C(=O)NC(C)C)cc(C(C)(C)C)c2)n1CC1CCCCC1
pIC50 (REN): 7.0
--
molecule: Cc1c(C(=O)NC2COC2)cc(-c2cc(C(C)(C)C)cc(C(C)(C)C)c2)n1S(=O)(=O)N1CCCCC1
pIC50 (REN): 6.9
--
molecule: Cc1c(C(=O)NC2CCOCC2)cc(-c2ccc(S(=O)(=O)NC(C)(C)C)c(C(F)(F)F)c2)n1CC1CCCCC1
pIC50 (REN): 8.0
--
molecule: Cc1c(C(=O)NC2COC2)cc(-c2cc(C(C)(C)C)c(F)c(C(C)(C)C)c2)n1CC1CCCCC1
pIC50 (REN): 7.0
